Hey, just so you know, these numbers are from ChEMBL document CHEMBL5058577.

What Population Pyknosed Nuclei (%) was measured for each of the following?
test system: U2OS; assay: Multiplex assay against U2OS; format: toxicity, cell-based; conditions: human, 48 h, 1 µM, compound concentration 1 uM, replicate 2
Give bare numbers, in %.

CC[C@@H](C)Nc1nc(C)nc2c(-c3ccc(OC)nc3C)c(C)nn12 = 9

Please give Population Pyknosed Nuclei (%) for each item listed below.
1. CCCCC1=NC2(CCCC2)C(=O)N1Cc1ccc(-c2ccccc2-c2nnn[nH]2)cc1
2. CC(C)(C)c1cc(NC(=O)Nc2ccc(-c3cn4c(n3)sc3cc(OCCN5CCOCC5)ccc34)cc2)no1
3. Cc1sc2c(c1C)C(c1ccc(Cl)cc1)=N[C@@H](CC(=O)NCCCCCCCCNC(=O)COc1cccc3c1C(=O)N(C1CCC(=O)NC1=O)C3=O)c1nnc(C)n1-2 (stereo partly specified)
4. CC(C)c1noc(N2CCC(COc3ccc(-c4ccc(S(C)(=O)=O)cc4)nc3)CC2)n1
5. C[C@H](N)COC(=O)[C@@H](CCCCN)NC(=O)Cc1c(-c2ccc3ccccc3c2)[nH]c2c1ccc1ccccc12

[9, 10, 7, 10, 8]

###

test system: U2OS; assay: Multiplex assay against U2OS; format: toxicity, cell-based; details: human, 48 h, 10 µM, compound concentration 10 uM, replicate 1
MEASURED ATTRIBUTE: Population Normal (%)
Answers are plain numbers, in %.

Cc1onc(-c2ccccc2Cl)c1C(=O)N(C)c1ccc(Cl)cc1 = 96
CCCOc1ccc2[nH]cc(C3=CCNCC3)c2n1.Cl = 95
O=C1[C@H](Cc2ccc(O)cc2)N2C(=O)CCN(C(=O)NCc3ccccc3)[C@H]2CN1Cc1cccc2ccccc12 = 94

The following molecules each have a reported value; give each one's Population Normal (%).
1. O=C(CCCc1ccccc1)Nc1nc2ccccc2c(=O)s1
2. CC[C@@H](C)Nc1nc(C)nc2c(-c3ccc(OC)nc3C)c(C)nn12
3. CN(C)C(=O)Cn1cc(-c2ccc(-c3cncc4ccccc34)cc2)cn1
4. CN[C@@H](C)C(=O)N[C@H](C(=O)N1CCC[C@H]1C(=O)Nc1snnc1-c1ccccc1)C1CCCCC1
5. Cl.N=C(N)NC(=O)Cc1c(Cl)cccc1Cl [GUANFACINE HYDROCHLORIDE]
6. C[C@H](N)COC(=O)[C@@H](CCCCN)NC(=O)Cc1c(-c2ccc3ccccc3c2)[nH]c2c1ccc1ccccc12
7. N#Cc1cc(F)cc(-c2nc(-c3ccc(F)cn3)no2)c1
8. Cc1cnc(-c2cc(N3CCN(C(=O)CCS(C)(=O)=O)CC3)ncc2Cl)c(C)c1

97
98
97
88
97
95
98
98

Quick one: give me Population Normal (%) for each item below, same order please.
1. COc1ccccc1N1CCN(C[C@@H](C(=O)NC(C)(C)C)c2ccccc2)CC1.Cl.Cl
2. COC[C@@H](c1ccc(C(F)(F)F)cc1)N1CCN(C2(C)CCN(C(=O)c3c(C)ncnc3C)CC2)C[C@@H]1C.O=C(O)/C=C\C(=O)O [VICRIVIROC MALEATE]

95
97

Need Population Normal (%) for each of these molecules.
1. Cc1noc(-c2ccc(-c3ccc(CC(=O)O)cc3)cc2)c1NC(=O)O[C@H](C)c1ccccc1Cl
2. Cc1sc2c(c1C)C(c1ccc(Cl)cc1)=N[C@@H](CC(=O)NCCCCCCCCNC(=O)COc1cccc3c1C(=O)N(C1CCC(=O)NC1=O)C3=O)c1nnc(C)n1-2 (stereo partly drawn)
3. Cc1c(CC(=O)O)c2cccnc2n1Cc1ccc(S(C)(=O)=O)cc1C(F)(F)F
4. CCCCCC(O)/C=C/[C@H]1C(=O)CC(O)C1C/C=C\CCCC(=O)O (stereo partly drawn)
5. Cl.NCCc1ccc(O)c(O)c1 [DOPAMINE HYDROCHLORIDE]

96
92
98
96
97
